The values you see were collected from patent US20200077648A1.

- measurement_protocol: Log P measurement by HPLC on reversed phase columns (EEC directive 79/831 Annex V.A8; methods [a], [b], [c])
- Assay type: physicochemical
- condition_description: method [a]: LC-UV, acidic range, 0.1% formic acid in water and acetonitrile as eluent (linear gradient 10% to 95% acetonitrile)

| compound | LogP |
| --- | --- |
| CCN(C)C=Nc1cc(C)c(Oc2ccccc2[S+](C)[O-])cc1C (stereo not shown) [Example 116] | 0.94^[a] |
| CCN(C)C=Nc1cc(C)c(Oc2ccccc2F)cc1N(C)C [Example 81] | 1.58^[a] |
| Cc1cc(Oc2ccccc2C#N)c(C)cc1N=CN(C)C [Example 70] | 1.25^[a] |
| CCN(C)C=Nc1cc(C)c(Oc2ccccc2S(C)(=O)=O)cc1C [Example 122] | 0.91^[a] |
| CCN(C)C=Nc1cc(C2CC2)c(Oc2ccccc2F)cc1C [Example 120] | 1.60^[a] |
| CCN(C)C=Nc1cc(C)c(Oc2ccccc2)cc1C#N [Example 72] | 1.53^[a] |
| Cc1cc(Oc2ccccc2Br)c(C)cc1N=CN(C)C [Example 68] | 1.66^[a] |
| C=C(C)c1cc(N=CN(C)CC)c(C)cc1Oc1ccccc1C#N [Example 109] | 1.60^[a] |
| CCN(C)C=Nc1cc(C)c(Oc2cccc(F)c2C)cc1C [Example 86] | 1.72^[a] |
| Cc1cc(Oc2ccccc2Br)c(C)cc1N=CN(C)C(C)C [Example 69] | 1.97^[a] |
